Molecular target: tau (microtubule-associated protein tau) (Homo sapiens, UniProt P10636)
Sequence (P10636 150-247 isoform P10636-3): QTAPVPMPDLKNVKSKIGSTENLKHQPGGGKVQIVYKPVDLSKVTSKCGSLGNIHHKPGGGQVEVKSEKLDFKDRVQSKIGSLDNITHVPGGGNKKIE
Experiment: ThT fluorescence assay of heparin-induced aggregation of recombinant tau; 3RMBD result confirmed by TEM and CD
Measured attribute: pIC50
The quantity pIC50 is defined as the negative base-10 logarithm of the molar concentration.

Qu. Please tell me the measured pIC50 for "COc1cc(OCc2ccccn2)ccc1/C=C/c1cc(/C=C/c2ccc3cc[nH]c3c2)[nH]n1" ; system: tau (microtubule-associated protein tau) (Homo sapiens, UniProt P10636).
Ans. 6.09
